molecular target: FGFR2 (N549H) (Homo sapiens, UniProt P21802, N549H); construct: purchased Millipore 14-742; assay: FGFR2 kinase activity assay (fluorescent ELISA); assay type: biochemical; conditions: 30 μM compound
Sequence (P21802 22-821 N549H): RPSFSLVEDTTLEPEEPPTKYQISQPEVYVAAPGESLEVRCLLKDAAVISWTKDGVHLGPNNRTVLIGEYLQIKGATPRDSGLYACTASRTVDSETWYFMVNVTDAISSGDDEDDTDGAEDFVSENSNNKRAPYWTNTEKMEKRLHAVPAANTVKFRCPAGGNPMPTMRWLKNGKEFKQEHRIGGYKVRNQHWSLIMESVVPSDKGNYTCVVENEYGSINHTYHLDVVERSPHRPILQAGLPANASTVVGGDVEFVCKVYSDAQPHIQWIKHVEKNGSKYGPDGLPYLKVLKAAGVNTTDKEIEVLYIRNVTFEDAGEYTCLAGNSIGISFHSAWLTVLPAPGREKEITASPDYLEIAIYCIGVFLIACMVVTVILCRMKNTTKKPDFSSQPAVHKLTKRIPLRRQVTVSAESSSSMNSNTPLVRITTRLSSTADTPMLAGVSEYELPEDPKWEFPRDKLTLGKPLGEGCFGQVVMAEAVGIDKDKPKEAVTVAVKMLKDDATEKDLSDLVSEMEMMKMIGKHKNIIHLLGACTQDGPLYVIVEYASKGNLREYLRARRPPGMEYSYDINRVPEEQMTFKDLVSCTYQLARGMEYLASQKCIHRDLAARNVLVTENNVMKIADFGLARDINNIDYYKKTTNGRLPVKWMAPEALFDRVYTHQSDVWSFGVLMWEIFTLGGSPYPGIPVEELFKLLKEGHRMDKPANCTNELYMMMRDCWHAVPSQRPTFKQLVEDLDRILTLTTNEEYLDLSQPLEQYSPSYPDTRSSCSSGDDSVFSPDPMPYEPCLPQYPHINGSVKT
# Lookup of reported inhibition at 30 µM keyed by entry
Numbers only; they are read as %.

Query string: Field request: inhibition at 30 µM | item: Cc1cccc(Nc2nccn3c(N)nnc23)c1 [Compound 118]
Result string: 50.4

Query string: Field request: inhibition at 30 µM | item: CCc1ccc(CNc2nccn3c(N)nnc23)cc1 [Compound 139]
Result string: 96.3

Query string: Field request: inhibition at 30 µM | item: CC(C)OC(=O)Nc1nnc2c(NCc3cccc(C(F)(F)F)c3)nccn12 [Compound 81]
Result string: 96.9

Query string: Field request: inhibition at 30 µM | item: CCc1ccc(CCNc2nccn3c(NC(=O)OC(C)C)nnc23)cc1 [Compound 62]
Result string: 74.2

Query string: Field request: inhibition at 30 µM | item: CC(C)OC(=O)Nc1nnc2c(NCc3cccc(Cl)c3)nccn12 [Compound 24]
Result string: 65.3

New cases:
Query string: Field request: inhibition at 30 µM | item: COc1ccc(OC)c(Nc2nccn3c(NC(=O)OC(C)C)nnc23)c1 [Compound 46]
Result string: 84.6

Query string: Field request: inhibition at 30 µM | item: CC(C)OC(=O)Nc1nnc2c(NCc3ccc(-c4ccccc4)cc3)nccn12 [Compound 61]
Result string: 100

Query string: Field request: inhibition at 30 µM | item: CC(C)OC(=O)Nc1nnc2c(Nc3ccccc3Cl)nccn12 [Compound 13]
Result string: 50.5
